# Test Parameters: human, plasma, oral, 850 mg
Reported Property: Tmax

Request: Recorded Tmax of "CN(C)C(=N)N=C(N)N" , please.
Response: 1.5 to 4 h

###

# Test Parameters: human, plasma, po, 850 mg
Reported Property: Cmax (ng/mL)
State just the number; it will be interpreted in ng/mL.

Request: Recorded Cmax of CN(C)C(=N)N=C(N)N [Metformin] , please.
Response: 1300
